Data provenance: PubChem BioAssay (NCI)

Test system: HOP-92 NSCLC
Test: NCI-60 one-dose screen, 48 h
Settings: 10 µM unless noted
The panel holds about 83,000 compounds, 20% with a hit somewhere; the sample as a whole holds those more often. Calls of active or inactive are those of the source. How the source made its calls: active means growth percent below 10; inactive means the rest.
// allowed return values: YES = active, NO = inactive

For orientation, consider the following solved cases.
Compound	Assayed system	Qualitative label
COc1cccc(NC(=O)Cn2cc(CN3CCN(c4ccnc5cc(Cl)ccc45)CC3)nn2)c1	HOP-92 NSCLC	NO
COCCNC(=O)c1ccc(-c2nc3ccc4[nH]ncc4c3c3c2CCCC3)cc1	HOP-92 NSCLC	NO
O=C1NCCC12CCN(c1c(Cl)cncc1-c1ccc(O)cc1)CC2	HOP-92 NSCLC	NO
C=C1C(=O)O[C@H]2[C@H]1CC/C(COC(=O)N[C@H]1C[C@H](O[C@H]3C[C@](O)(C(=O)CO)Cc4c(O)c5c(c(O)c43)C(=O)c3c(OC)cccc3C5=O)O[C@@H](C)[C@H]1O)=C\CC[C@@]1(C)O[C@@H]21	HOP-92 NSCLC	YES
Cn1c(-c2ccc(Br)cc2)c(O)c(=O)c2c(F)cccc21	HOP-92 NSCLC	NO

How was COC1C[C@H](O[C@@H]2C[C@H](O[C@@H]3C[C@H](O[C@@H]4C(=O)c5c(cc6cc(O[C@H]7C[C@@H](O[C@H]8C[C@@H](O)[C@H](O)C(C)O8)[C@H](O)C(C)O7)c(C)c(O)c6c5O)C[C@H]4C(OC)C(=O)[C@@H](O)[C@@H](C)O)OC(C)[C@H]3O)OC(C)[C@@H]2O)OC(C)[C@@H]1O (some centres not stated) classified in this test?
YES

Called result for NC(=O)CCC(C(=O)O)N1C(=O)c2ccc(O)cc2C1=O (configuration not stated)
NO

----------
System: SK-MEL-2 melanoma
Test: NCI-60 one-dose screen, 48 h
Settings: 10 µM unless noted
Procedure: Growth inhibition of the SK-MEL-2 human tumor cell line is measured as a screen for anti-cancer activity. Cells are grown in 96 well plates and exposed to the test compound for 48 hours. Compounds are tested at a single concentration, which is 10^-5 M for most compounds. The reported endpoint is percent growth (GI% or GIPRCNT), where numbers from 0 - 100% represent growth inhibition, and numbers from -100% - 0 represent cell death. For example, a value of 40 represents 60% growth inhibition. […]
This is part of a sample that, as a whole, favours compounds with a hit. Of some 83,000 tested, about 20% had one in any assay. Calls of active or inactive are those of the source. The calls were made as follows: active = growth percent below 10; inactive = the rest.
Pick one: active, inactive

Compound	Qualitative label
COc1ccc(-c2cn(-c3cc(OC)c(OC)c(OC)c3)c(=O)n2C(C)=O)cc1	inactive
COC(=O)CCC(=O)C(=O)OC	active
CC(C)=CCC[C@](C)(O)[C@H]1CC[C@]2(C)[C@@H]1CC[C@@H]1[C@@]3(C)Cc4nccnc4C(C)(C)[C@@H]3CC[C@]12C	inactive

# fetch the recorded call for "O=Nc1c(-c2c(O)[nH]c3ncccc23)[nH]c2ccccc12" here
inactive

Assay outcome for CSc1nnc(-c2cnn3c2NC(c2ccccc2)C3)n1-c1ccc(C(F)(F)F)cc1 (centres undefined) : what was it?
inactive

----------
Tested on: SR leukemia
Assay: NCI-60 one-dose screen, 48 h
Settings: 10 µM unless noted
About 83,000 compounds went through this panel and 20% of them were active in at least one assay; those are over-represented in the sample as a whole. The source made the active and inactive calls. How the source made its calls: active means growth percent below 10; inactive means the rest.
Bench note: report the call from active, inactive

// known answers, use as guide
Smiles	Qualitative label
O=C1/C(=C/c2ccc(Cl)c(Cl)c2)CN(C(=O)C(Cl)Cl)C/C1=C\c1ccc(Cl)c(Cl)c1	active
N#Cc1nc(-c2ccccc2)oc1S(=O)(=O)N1CCOCC1	active
COC(=O)c1c2c(c(C)[n+]([O-])c1C)C(=O)C=C(NCc1ccc(Br)cc1)C2=O	active
COc1ccc(N2CCC(=O)NC2=S)cc1	inactive

Next item in the queue.
Test call, this compound: "CC(C)(C)[Si](C)(C)O[C@H]1C(=O)C=CN2CC=C[C@@H]12"
inactive
